This collection of values is drawn from ChEMBL document CHEMBL1147483.

Tested on: Mus musculus
Test Protocol: Inhibition of LPS induced TNF-alpha release in mice following p.o. administration.
Assay type: functional
Design: concentration or dose not given beside the values
The threshold is inclusive: Inhibition of exactly 90% counts as 1.0; values below receive 0.0.

Determine whether this molecule has Inhibition no lower than 90%: CN1CCN(c2ccc3c(n2)nc(-c2ccc(F)cc2)n3-c2ccnc(NC3CCCC3)n2)CC1
1.0

Inhibition >= 90% for C[C@H](Nc1nccc(-n2c(-c3ccc(F)cc3)nc3nc(N4CCN(C)CC4)ccc32)n1)c1ccccc1 ?
0.0

Kindly determine if Inhibition recorded for CN1CCC(O)(c2cn(-c3ccnc(NC4CCCC4)n3)c(-c3cccc(C(F)(F)F)c3)n2)CC1 is above or exactly 90%.
1.0

Does the molecule C[C@H](Nc1nccc(-n2cc(C3(O)CCN(C)CC3)nc2-c2ccc(F)cc2)n1)c1ccccc1 have recorded Inhibition that is 90% or more?
1.0

Check the entry C[C@H](Nc1nccc(-c2[nH]c(C3(O)CCN(C)CC3)nc2-c2ccc(F)cc2)n1)c1ccccc1 : does Inhibition equal or exceed 90%?
0.0

Does Fc1ccc(-c2nc(C3CCNCC3)cn2-c2ccnc(NC3CCCCC3)n2)cc1 have a reported Inhibition of at least 90%?
0.0

Hello, I need to know if C[C@H](Nc1cc(-c2[nH]c(C3(O)CCN(C)CC3)nc2-c2ccc(F)cc2)ccn1)c1ccccc1 has measured Inhibition not below 90%. Thanks!
0.0

Is the recorded value of Inhibition equal to or greater than 90% for this molecule? C[C@H](Nc1cc(-c2oc(C3(O)CCN(C)CC3)nc2-c2ccc(F)cc2)ccn1)c1ccccc1
0.0

Is Inhibition for FC(F)(F)c1cccc(-c2nc(C3CCNCC3)cn2-c2ccnc(NC3CCCCC3)n2)c1 at or above 90%?
0.0

Is the recorded value of Inhibition equal to or greater than 90% for this molecule? C[C@H](Nc1nccc(-c2oc(C3(O)CCN(C)CC3)nc2-c2ccc(F)cc2)n1)c1ccccc1
0.0

Item C[C@H](Nc1cc(-c2sc(C3(O)CCN(C)CC3)nc2-c2ccc(F)cc2)ccn1)c1ccccc1 with Inhibition of 90% or above?
1.0
